- Experimental target: Fatty acid synthase (Homo sapiens)
- Sequence (P49327 whole entry, the tested form may be a part): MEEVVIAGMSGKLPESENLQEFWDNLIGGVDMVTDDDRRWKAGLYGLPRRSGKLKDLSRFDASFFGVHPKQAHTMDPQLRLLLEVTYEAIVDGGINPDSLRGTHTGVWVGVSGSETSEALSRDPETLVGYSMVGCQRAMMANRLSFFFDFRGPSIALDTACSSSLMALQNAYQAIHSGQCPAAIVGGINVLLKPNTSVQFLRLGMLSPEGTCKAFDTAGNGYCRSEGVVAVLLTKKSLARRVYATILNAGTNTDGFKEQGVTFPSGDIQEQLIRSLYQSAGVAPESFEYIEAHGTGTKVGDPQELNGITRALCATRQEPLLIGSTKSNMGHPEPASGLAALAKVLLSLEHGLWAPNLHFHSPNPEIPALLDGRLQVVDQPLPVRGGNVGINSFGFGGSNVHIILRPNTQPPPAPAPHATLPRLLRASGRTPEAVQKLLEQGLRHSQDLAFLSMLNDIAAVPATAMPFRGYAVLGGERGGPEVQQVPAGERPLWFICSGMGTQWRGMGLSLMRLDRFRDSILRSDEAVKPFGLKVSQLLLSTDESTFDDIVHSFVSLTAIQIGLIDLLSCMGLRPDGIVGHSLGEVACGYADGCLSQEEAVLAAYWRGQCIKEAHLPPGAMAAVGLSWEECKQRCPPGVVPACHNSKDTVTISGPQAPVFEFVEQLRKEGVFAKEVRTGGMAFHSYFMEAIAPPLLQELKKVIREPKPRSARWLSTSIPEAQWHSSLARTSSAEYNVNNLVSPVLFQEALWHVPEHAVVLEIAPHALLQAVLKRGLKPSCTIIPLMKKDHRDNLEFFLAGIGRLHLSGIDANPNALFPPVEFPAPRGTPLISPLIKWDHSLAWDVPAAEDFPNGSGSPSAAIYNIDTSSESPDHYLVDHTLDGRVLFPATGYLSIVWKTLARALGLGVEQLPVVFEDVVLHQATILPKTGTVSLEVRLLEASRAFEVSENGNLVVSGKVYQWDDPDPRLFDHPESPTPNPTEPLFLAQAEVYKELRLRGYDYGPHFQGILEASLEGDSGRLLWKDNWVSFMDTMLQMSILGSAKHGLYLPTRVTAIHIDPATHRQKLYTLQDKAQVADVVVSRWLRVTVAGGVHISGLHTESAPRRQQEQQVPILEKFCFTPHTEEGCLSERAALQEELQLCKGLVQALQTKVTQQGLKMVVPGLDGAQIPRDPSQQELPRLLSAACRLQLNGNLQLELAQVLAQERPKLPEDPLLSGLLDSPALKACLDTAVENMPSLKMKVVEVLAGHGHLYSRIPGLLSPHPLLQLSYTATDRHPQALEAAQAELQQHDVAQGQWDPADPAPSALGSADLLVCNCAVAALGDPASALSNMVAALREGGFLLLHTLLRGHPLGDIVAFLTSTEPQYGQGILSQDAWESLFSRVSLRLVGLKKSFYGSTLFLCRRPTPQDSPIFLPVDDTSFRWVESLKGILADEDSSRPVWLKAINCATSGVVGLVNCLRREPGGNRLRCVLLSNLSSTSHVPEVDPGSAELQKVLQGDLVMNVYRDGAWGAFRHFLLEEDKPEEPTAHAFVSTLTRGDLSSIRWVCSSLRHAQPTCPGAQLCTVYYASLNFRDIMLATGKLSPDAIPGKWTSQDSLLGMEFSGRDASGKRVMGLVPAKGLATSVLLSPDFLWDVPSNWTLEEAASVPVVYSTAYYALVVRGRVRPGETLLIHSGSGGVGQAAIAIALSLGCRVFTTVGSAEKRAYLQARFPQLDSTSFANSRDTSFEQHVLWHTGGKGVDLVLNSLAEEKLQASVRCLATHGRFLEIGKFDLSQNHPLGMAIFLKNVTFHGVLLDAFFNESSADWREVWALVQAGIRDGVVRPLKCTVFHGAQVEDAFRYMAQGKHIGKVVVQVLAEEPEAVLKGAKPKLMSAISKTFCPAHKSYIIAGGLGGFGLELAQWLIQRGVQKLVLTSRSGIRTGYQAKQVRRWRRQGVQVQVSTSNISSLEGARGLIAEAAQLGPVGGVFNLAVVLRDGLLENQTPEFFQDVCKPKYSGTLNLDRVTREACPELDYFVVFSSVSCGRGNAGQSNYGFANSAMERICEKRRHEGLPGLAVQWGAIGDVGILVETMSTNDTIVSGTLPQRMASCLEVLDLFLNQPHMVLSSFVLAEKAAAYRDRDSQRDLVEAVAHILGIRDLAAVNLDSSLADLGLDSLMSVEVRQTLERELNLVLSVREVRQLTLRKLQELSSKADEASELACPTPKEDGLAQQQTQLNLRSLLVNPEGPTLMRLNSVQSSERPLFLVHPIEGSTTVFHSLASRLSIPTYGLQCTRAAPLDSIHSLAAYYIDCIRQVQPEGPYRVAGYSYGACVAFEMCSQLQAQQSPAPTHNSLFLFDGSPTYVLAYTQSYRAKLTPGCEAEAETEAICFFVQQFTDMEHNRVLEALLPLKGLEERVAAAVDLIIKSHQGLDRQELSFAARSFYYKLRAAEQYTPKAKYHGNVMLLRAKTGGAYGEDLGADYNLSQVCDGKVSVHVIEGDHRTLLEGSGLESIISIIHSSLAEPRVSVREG
- Experimental details: FAS thioesterase domain inhibitors, dose response, biochemical, kinetic fluorescence intensity (AID 624326);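 further: rate of fluorescence rise from hydrolysis of a fluorogenic O-methyl fluorescein ester substrate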
- Assay type: functional
The source made the active and inactive calls.
One label from this list, please: active, inactive

Q. What did this assay record as the result for `CCN1CCN(S(=O)(=O)c2ccc(Cl)c(C(=O)N(C)Cc3ccc(C(C)(C)C)cc3)c2)CC1` ?
A. active

Q. What did this assay record as the result for `O=C(/C=C/c1cc([N+](=O)[O-])ccc1OC(F)F)Nc1cccc2ccccc12` ?
A. inactive

Q. What did this assay record as the result for `C#CCN(C[C@H]1[C@H](OC(=O)NC2CCCC2)[C@H](OC(=O)NC2CCCC2)C[C@H]2C(=O)N(c3ccccc3)C(=O)[C@@H]12)S(=O)(=O)c1ccc(C)cc1` ?
A. inactive

Q. What did this assay record as the result for `C[C@H](CO)N1C[C@H](C)[C@@H](CN(C)C(=O)NC2CCCCC2)Oc2c(NC(=O)Nc3ccccc3)cccc2C1=O` ?
A. active

###

- Experimental target: Orexin receptor type 2 (Homo sapiens, UniProt O43614)
- Sequence (O43614 whole entry): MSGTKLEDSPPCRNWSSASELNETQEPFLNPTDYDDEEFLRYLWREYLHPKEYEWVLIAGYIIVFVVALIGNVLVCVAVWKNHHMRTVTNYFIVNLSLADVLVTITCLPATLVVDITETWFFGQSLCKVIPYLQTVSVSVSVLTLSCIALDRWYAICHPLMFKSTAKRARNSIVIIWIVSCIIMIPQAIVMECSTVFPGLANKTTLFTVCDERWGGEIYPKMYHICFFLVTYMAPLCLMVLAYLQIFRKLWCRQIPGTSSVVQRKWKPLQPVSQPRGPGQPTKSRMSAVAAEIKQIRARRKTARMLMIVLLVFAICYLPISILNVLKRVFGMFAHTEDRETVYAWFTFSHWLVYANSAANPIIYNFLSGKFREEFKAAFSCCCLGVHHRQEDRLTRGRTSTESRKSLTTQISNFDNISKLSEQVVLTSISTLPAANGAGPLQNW
- Experimental details: Counterscreen assay for antagonists of the orexin 1 receptor (OX1R; HCRTR1): Fluorescence-based cell-based dose response assay for antagonists of the orexin 2 receptor (OX2R; HCRTR2), run by assay provider.
- Assay type: functional
Activity calls are given as the source filed them.
Reported property: IC50

// IC50 lookup, molecule = CSc1cccc(NC(=O)C2CCCN(S(=O)(=O)c3ccc(F)cc3)C2)c1 (centres undefined) , result: 8.4 µM (active)

// IC50 lookup, molecule = `CCn1c2ccccc2c2cc(NC(=O)c3cccc(OC)c3OC)ccc21` , result: > 88.8 µM (inactive)

// IC50 lookup, molecule = `C=CCn1c(SCC(=O)Nc2cc3oc4ccccc4c3cc2OC)nnc1-c1cnccn1` , result: 10.4 µM (inactive)

// IC50 lookup, molecule = `Cc1cccc(NC(=O)NNC(=O)c2cc(-c3ccccc3Cl)nc3ccccc23)c1` , result: 16.4 µM (inactive)

###

- Experimental details: cytotoxicity toward NIH3T3 fibroblasts, dose response, counter-screen, cell-based, ATP luminescence, mouse fibroblasts (AID 2010);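 further: cells exposed to compound for about 90 hours before reading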
- Assay type: functional
Can you tell me EC50 for the items I'm about to list?

// EC50 lookup, molecule = `CC1CCN(S(=O)(=O)c2ccc(NC(=O)Cn3nnc(-c4ccccc4F)n3)cc2)CC1` , result: > 60 µM (not active)

// EC50 lookup, molecule = `COc1ccc(N2C(=O)/C(=C\NNS(=O)(=O)c3cccc([N+](=O)[O-])c3)c3ccccc3C2=O)cc1OC` , result: > 60 µM (not active)

// EC50 lookup, molecule = `COc1cnc(-c2ccccn2)nc1Sc1ccccc1` , result: > 60 µM (not active)

###

Can you tell me AC50 for the items I'm about to list?
- Experimental target: Replicative DNA helicase DnaB (Mycobacterium tuberculosis)
- Sequence (P9WMR3 whole entry): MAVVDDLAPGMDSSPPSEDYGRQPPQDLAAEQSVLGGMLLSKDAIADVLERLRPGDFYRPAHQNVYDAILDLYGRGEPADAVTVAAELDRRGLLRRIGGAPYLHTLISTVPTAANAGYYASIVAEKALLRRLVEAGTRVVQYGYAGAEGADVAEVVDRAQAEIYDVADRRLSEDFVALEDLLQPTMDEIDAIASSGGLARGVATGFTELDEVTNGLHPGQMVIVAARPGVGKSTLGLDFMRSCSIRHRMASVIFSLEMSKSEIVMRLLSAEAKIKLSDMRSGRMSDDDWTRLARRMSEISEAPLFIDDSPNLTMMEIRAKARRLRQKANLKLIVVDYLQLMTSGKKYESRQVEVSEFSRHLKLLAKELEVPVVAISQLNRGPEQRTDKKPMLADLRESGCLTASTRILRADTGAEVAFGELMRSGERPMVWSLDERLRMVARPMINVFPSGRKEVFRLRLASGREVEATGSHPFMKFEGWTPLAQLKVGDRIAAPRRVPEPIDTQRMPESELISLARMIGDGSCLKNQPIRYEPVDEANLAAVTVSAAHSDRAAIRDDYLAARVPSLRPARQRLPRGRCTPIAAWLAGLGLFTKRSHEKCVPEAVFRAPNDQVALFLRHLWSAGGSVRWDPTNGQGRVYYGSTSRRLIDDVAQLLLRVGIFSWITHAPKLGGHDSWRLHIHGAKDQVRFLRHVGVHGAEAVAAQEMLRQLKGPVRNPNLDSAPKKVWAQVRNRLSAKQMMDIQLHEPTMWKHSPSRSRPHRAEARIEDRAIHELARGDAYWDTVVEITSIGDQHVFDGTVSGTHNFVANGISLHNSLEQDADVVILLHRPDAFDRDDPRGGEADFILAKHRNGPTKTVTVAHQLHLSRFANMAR
- Experimental details: DnaB intein splicing inhibitors, dose response, biochemical, cell-free fluorescence (AID 449749)
- Type: functional
Active and inactive are the calls of the source.

// AC50 lookup, molecule = COc1ccc(C2NC(S)=NC3=C2CCc2ccccc23)cc1OC (stereo unspecified) , result: 20 µM (active)

// AC50 lookup, molecule = N#CC1=C(N)Oc2nc(-c3ccccc3)[nH]c2C1c1cccnc1 (stereo unspecified) , result: 11.3 µM (active)

// AC50 lookup, molecule = `O=[N+]([O-])c1cc([N+](=O)[O-])c2cc3ccccc3nc2c1` , result: > 380 µM (inconclusive)

// AC50 lookup, molecule = `Cc1cccc(Nc2nc(NCc3ccco3)c3ccccc3n2)c1` , result: 5.65 µM (active)

// AC50 lookup, molecule = `O=C([C-](C1=[N+](Cc2ccc(Cl)nc2)CCN1Cc1ccc(Cl)nc1)[N+](=O)[O-])C(Cl)Cl` , result: 2.03 µM (active)

// AC50 lookup, molecule = `Cc1cccc(Sc2c(C=O)c3ccccc3n2C)c1` , result: 5.7 µM (active)

// AC50 lookup, molecule = CCOC(=O)Cc1n[nH]c2c1C(c1cccc(OC)c1OC)C(C#N)=C(N)O2 (stereo unspecified) , result: 34.7 µM (inconclusive)

// AC50 lookup, molecule = COc1cc(C2CC(c3cccs3)=NN2C(=O)CCl)ccc1OC(F)F (stereo unspecified) , result: 1.51 µM (active)

// AC50 lookup, molecule = `O=C1CC(CSc2ccc(Cl)cc2)=NN1` , result: 3.23 µM (active)

// AC50 lookup, molecule = `Nc1ccc(N2CCCCC2)c2nonc12` , result: 5.14 µM (active)

// AC50 lookup, molecule = `Cc1ccc(S(=O)(=O)/N=C2\C=C(Nc3cccc(C(=O)O)c3)C(=O)c3ccccc32)c(C)c1` , result: 27 µM (active)
